TGT: REC17 serotonin receptor (5-HT5α) (Rattus norvegicus, UniProt P35364)
Construct: contains an ORF encoding 357 amino acids; expressed in transfected cells; host or cells: CosM6 (subclone of COS-7), transient, vector pCMV4
Sequence (P35364 whole entry): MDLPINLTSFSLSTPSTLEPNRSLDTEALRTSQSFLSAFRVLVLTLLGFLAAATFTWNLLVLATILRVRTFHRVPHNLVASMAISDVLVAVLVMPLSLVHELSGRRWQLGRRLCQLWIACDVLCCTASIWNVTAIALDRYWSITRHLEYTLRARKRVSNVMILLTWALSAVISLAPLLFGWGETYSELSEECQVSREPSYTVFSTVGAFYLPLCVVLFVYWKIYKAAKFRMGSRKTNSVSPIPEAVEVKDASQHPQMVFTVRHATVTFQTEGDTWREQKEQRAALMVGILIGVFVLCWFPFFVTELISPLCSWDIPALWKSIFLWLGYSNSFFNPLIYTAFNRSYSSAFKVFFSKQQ
METHOD NOTES: [125I]-LSD competition binding to membranes of CosM6 cells expressing REC17
REPORTED ENDPOINT: sensitivity of REC17 to the ligand (in words)

- COMPOUND: "NCCc1c[nH]c2ccc(C(N)=O)cc12"
  RESULT: "sensitive"
- COMPOUND: "CNS(=O)(=O)Cc1ccc2[nH]cc(CCN(C)C)c2c1"
  RESULT: "insensitive"
- COMPOUND: "CSc1ccc2c(c1)C(N1CCN(C)CC1)Cc1ccccc1S2 (stereo not shown) [Methiothepin]"
  RESULT: "sensitive"
- COMPOUND: "CCCN(CCC)C1CCc2cccc(O)c2C1 (stereo not shown)"
  RESULT: "insensitive"
